Cited source for all entries: ChEMBL document CHEMBL5058577

System: HEK-293T
experiment: Multiplex assay against HEK293T
Format: toxicity, cell-based
measurement_context: human, 48 h, 1 µM, compound concentration 1 uM, replicate 1
Can you tell me Population Apoptotic (%) for the items I'm about to list?
Field: numeric (%). Do not append units.

I'm curious: which Population Apoptotic (%) was measured for C=CCN1C[C@H](C(=O)N(CCCN(C)C)C(=O)NCC)C[C@@H]2c3cccc4[nH]cc(c34)C[C@H]21 tested on HEK-293T? 13

Observed Population Apoptotic (%) on HEK-293T for Cc1cc(=O)n(C)c2cc(N3C(=O)CC[C@H](NS(=O)(=O)CC(C)C)[C@H]3c3ccc(Cl)cc3)ccc12 , please. 25

Under HEK-293T: Population Apoptotic (%) value of Nc1nc(CC(=O)Nc2ccc(CCNC[C@H](O)c3ccccc3)cc2)cs1 ? 18

Query Population Apoptotic (%) on HEK-293T for COc1ccc2[nH]c(I)c(CCNC(C)=O)c2c1 26

Form field: Population Apoptotic (%) recorded for COc1cc(OC2CCN(C(C)=O)CC2)ccc1C(=O)N1CCC(N2C(=O)OCc3ccccc32)CC1 with HEK-293T (enter value) 20

So what Population Apoptotic (%) did CN(C)C(=O)Cn1cc(-c2ccc(-c3nnc4ccccn34)cc2)cn1 get with HEK-293T? 18

Find the measured Population Apoptotic (%): item COc1c(Nc2ccc(S(C)(=O)=O)nc2C)ncnc1OC1CCN(C(=O)OC(C)C)CC1 , target or system HEK-293T. 25

Record COCCCN1CCC(NC(=O)c2cc(Cl)c(N)c3c2OCC3)CC1 [PRUCALOPRIDE] : what is its Population Apoptotic (%) with HEK-293T? 24

# returns recorded Population Apoptotic (%) (system: HEK-293T) for CC(C)C[C@H](CO)Nc1nc(S[C@@H](C)c2ccccc2)nc2nc(N)sc12 43

====

Tested on: Fibroblast
experiment: Multiplex assay against human fibroblast
Assay type: toxicity, cell-based
measurement_context: 48 h, 10 µM, compound concentration 10 uM, replicate 2
// NB: equality with 50% counts as criterion not met; only Population Healthy Nuclei (%) strictly below is criterion met

Given the entry O=c1nc2[nH]c3ccccc3nc-2c(=O)[nH]1 [ALLOXAZINE] , would its reported Population Healthy Nuclei (%) be below 50%? criterion met

Here's an entry: C[C@@H]1CC(=O)Nc2cccc(-c3ccc4c(c3)c(-c3cnn(C)c3)nn4C)c2N1 . Is its Population Healthy Nuclei (%) below 50%? criterion not met

Criterion: Population Healthy Nuclei (%) strictly below 50%. Is it met by Cn1cc(C(=O)OCC2CCN(CCNS(C)(=O)=O)CC2)c2ccccc21 ? criterion met

Determine if CC(F)(F)CN1CCOc2c(nn(-c3ccccc3Cl)c2-c2ccc(Cl)cc2)C1=O shows Population Healthy Nuclei (%) strictly lower than 50%. criterion not met

Is Population Healthy Nuclei (%) of CN1CCN(c2ccc(Nc3c4ccccc4nc4ccccc34)cc2)CC1.Cl.Cl.O strictly below 50%? criterion met

Determine if CCCCCCNC(=O)Nc1ccc(S(=O)(=O)Nc2ccc(CCNC[C@H](O)COc3ccc(O)cc3)cc2)cc1 [L-755507] shows Population Healthy Nuclei (%) strictly lower than 50%. criterion not met

Decide: Population Healthy Nuclei (%) of COCCCN1CCC(NC(=O)c2cc(Cl)c(N)c3c2OCC3)CC1 [PRUCALOPRIDE] strictly below 50%? criterion met

Hello, I'm reviewing records and need to know if Population Healthy Nuclei (%) of CN1CCC(C(=O)c2cccc(NC(=O)c3c(F)cc(F)cc3F)n2)CC1 is below 50%. Could you check? criterion not met

Please indicate whether the reported Population Healthy Nuclei (%) of OCCCNc1cc(-c2ccnc(Nc3cccc(Cl)c3)n2)ccn1 is strictly below 50%. criterion met

Lab log: compare recorded Population Healthy Nuclei (%) with 50%; is it strictly lower for CC(C)C[C@H](CO)Nc1nc(S[C@@H](C)c2ccccc2)nc2nc(N)sc12 [AZD-8797] ? criterion met

Quick check: does Cc1cc(NC(=O)NCCN2CCC(O)(Cc3ccccc3)CC2)c2ccccc2n1 [PALOSURAN] have Population Healthy Nuclei (%) under 50%? criterion met

Would you kindly verify if Population Healthy Nuclei (%) of COc1ccc2c(c1OCc1ccccc1)C[C@@H](C(=O)O)N(C(=O)C(c1ccccc1)c1ccccc1)C2 [OLODANRIGAN] is strictly less than 50%? criterion not met

Consider CC(C)(C)c1ccc(CSc2cnn(C(C)(C)C)c(=O)c2Cl)cc1 [PYRIDABEN] . Does its Population Healthy Nuclei (%) lie strictly below 50%? criterion met

# strict comparison: is reported Population Healthy Nuclei (%) < 50%? input = CC(C)(O)C(=O)N1CCN(c2ccc(C(F)(F)F)c(C3=C(c4c[nH]c5ccccc45)C(=O)NC3=O)c2)CC1 criterion met

Confirm or reject: Population Healthy Nuclei (%) of COc1ccc2[nH]c(I)c(CCNC(C)=O)c2c1 [IODOMELATONIN] lies strictly below 50% criterion met

Strictly below 50% in Population Healthy Nuclei (%)? CSc1nc(NC2CCCC2)c([N+](=O)[O-])c(NC2CCCC2)n1 [GS-39783] criterion met
